ASSAY METHOD TEXT: S. cerevisiae growth inhibition in permissive medium (OD615), pilot counter-assay for S. cerevisiae lifespan shortening project, permissive growth control (AID 705)
RUN PARAMETERS: OD615, 24 h, at 10 µM, hits give high values
MEASURED QUANTITY: growth inhibition (%)
Give the quantity in %, number only.

**Q:** What does the data say about its growth inhibition? Entry: COc1ccccc1N1CCN(CC(O)c2ccc3cc[nH]c3c2)CC1 (centres undefined)
**A:** 3.54

**Q:** What does the data say about its growth inhibition? Entry: Cn1c(=O)c2c(nc3sccn32)n(C)c1=O
**A:** -7.3

**Q:** What does the data say about its growth inhibition? Entry: O=C(NCC1COc2ccccc2O1)C1C2C=CC3(CN(Cc4ccccc4Cl)C(=O)C13)O2 (centres undefined)
**A:** -6.06

**Q:** What does the data say about its growth inhibition? Entry: Cc1nnc(NC(=O)CSc2cn(CCNC(=O)c3ccccc3)c3ccccc23)s1
**A:** 3.24

**Q:** What does the data say about its growth inhibition? Entry: COC(=O)CCCCC(=O)C1C(=O)CC(C)(C)C(C(=O)OC)C1=O (centres undefined)
**A:** -15.7

**Q:** What does the data say about its growth inhibition? Entry: CCc1nnc(NC(=O)COC(=O)CN2C(=O)c3ccccc3C2=O)s1
**A:** 2.25

**Q:** What does the data say about its growth inhibition? Entry: Cc1c(NC(=O)c2noc3c2CCc2ccccc2-3)c(=O)n(-c2ccccc2)n1C
**A:** -3.5

**Q:** What does the data say about its growth inhibition? Entry: CCOc1ccccc1C(=O)Nc1nnc(CC)s1
**A:** -0.29

**Q:** What does the data say about its growth inhibition? Entry: Cc1nnc(Sc2nc3c(c(=O)[nH]c(=O)n3C)n2Cc2ccccc2Cl)s1
**A:** -9.12

----------
ASSAY METHOD TEXT: RAM signaling pathway blockade in yeast – S. cerevisiae, Pdr1DBD-CYC8 efflux-inhibited sensitized strain, primary screen (AID 1298);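 further: 0% = DMSO untreated cells without growth and 100% = 10 µM 1-NA-PP1 full growth; higher means more yeast growth rescued from 5-FOA killing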
RUN PARAMETERS: S. cerevisiae cbk1-as DSE1-URA3 strain, 5-FOA growth OD615, 2 d; at 50 µM; hits give high values
MEASURED QUANTITY: RAM network inhibition (%)
Give the quantity in %, number only.

**Q:** What does the data say about its RAM network inhibition? Entry: Cc1ccc(-n2nc(C)c3cc(C(=O)O)sc32)cc1
**A:** -1.34

**Q:** What does the data say about its RAM network inhibition? Entry: CCOc1ccc(OCC)c(Nc2cc(C)nc3nc(C)nn23)c1
**A:** 6.18

**Q:** What does the data say about its RAM network inhibition? Entry: CCCC(=O)Nc1nc2ccc(S(N)(=O)=O)cc2s1
**A:** -0.2

**Q:** What does the data say about its RAM network inhibition? Entry: CCCCNC(=O)c1ccc2c(c1)N(CC)C(=O)c1ccccc1S2(=O)=O
**A:** -2.03

**Q:** What does the data say about its RAM network inhibition? Entry: Cc1ccc2[nH]c(=O)c3cc(C(=O)NCCN4CCN(C)CC4)sc3c2c1
**A:** -1.95

**Q:** What does the data say about its RAM network inhibition? Entry: COc1ccc(NC(=O)c2c(-c3ccccc3)noc2C)c(OC)c1
**A:** 3.75

**Q:** What does the data say about its RAM network inhibition? Entry: CCOC(=O)c1c(C)oc2ccc(OC(=O)N3CCOCC3)cc12
**A:** 0.98

**Q:** What does the data say about its RAM network inhibition? Entry: CCCN1CCN(CCCNC(=O)Cn2ncc3c4ccccc4n(C)c3c2=O)CC1
**A:** -0.33

**Q:** What does the data say about its RAM network inhibition? Entry: CCOC(=O)c1sc2nc(NC(=O)C3CCCCC3)sc2c1C
**A:** 4.73

**Q:** What does the data say about its RAM network inhibition? Entry: CC(C)C(NS(=O)(=O)c1ccc2c(c1)oc(=O)n2C)C(=O)N1CCN(Cc2ccccc2)CC1 (stereo not given)
**A:** -2.73

**Q:** What does the data say about its RAM network inhibition? Entry: O=C(c1sc2ccccc2c1Cl)N(Cc1cccs1)C1CCS(=O)(=O)C1 (stereo not given)
**A:** 7.16

**Q:** What does the data say about its RAM network inhibition? Entry: COc1cccc(C2=NOC(C(=O)N3CCN(c4ccccc4)CC3)C2)c1OC (stereo not given)
**A:** 1

**Q:** What does the data say about its RAM network inhibition? Entry: Cc1nc2ccccc2c2oc(C(=O)NCC3COc4ccccc4O3)cc12 (stereo not given)
**A:** 3.41

**Q:** What does the data say about its RAM network inhibition? Entry: CC1(C(=O)NC2CCCCC2)CCC(=O)N1Cc1cccs1 (stereo not given)
**A:** 1.09

**Q:** What does the data say about its RAM network inhibition? Entry: COc1cccc2cc(C(=O)N3CCC(C)CC3)c(=O)oc12
**A:** 4.51

**Q:** What does the data say about its RAM network inhibition? Entry: Cc1c(Cl)cccc1NC(=O)CCN1CCCCC1
**A:** 4.96

**Q:** What does the data say about its RAM network inhibition? Entry: N#CC(C(=O)Nc1ccccc1)=C1CCCCC1
**A:** 4.92

**Q:** What does the data say about its RAM network inhibition? Entry: O=C(c1ccc2nc(N3CCOCC3)sc2c1)N1CCCC1
**A:** 1.02

**Q:** What does the data say about its RAM network inhibition? Entry: COC(=O)c1[nH]c2c(c1C)C(=O)CC(c1cc(OC)ccc1OC)C2 (stereo not given)
**A:** 1.94

**Q:** What does the data say about its RAM network inhibition? Entry: O=C(NCc1cccnc1)NC1(C(F)(F)F)Oc2ccc(Cl)cc2O1 (stereo not given)
**A:** 0.63

**Q:** What does the data say about its RAM network inhibition? Entry: Brc1ccc(-c2noc(CCc3ccccc3)n2)o1
**A:** 0.73

**Q:** What does the data say about its RAM network inhibition? Entry: Cc1cccc(OCC(=O)N2CCN(C(=O)Cc3ccccc3)CC2)c1
**A:** 0.56

**Q:** What does the data say about its RAM network inhibition? Entry: O=c1c(-c2ccccc2)coc2c(CN3CCOCC3)c(O)ccc12
**A:** -0.61

**Q:** What does the data say about its RAM network inhibition? Entry: Cc1nc2ccccn2c1/C(O)=C1\C(=O)C(=O)N(CCCN(C)C)C1c1ccc(F)cc1 (stereo not given)
**A:** -2.2

**Q:** What does the data say about its RAM network inhibition? Entry: COc1ccc(S(=O)(=O)NCc2ccc3c(c2)OCO3)cc1C(=O)O
**A:** 5.84

----------
ASSAY METHOD TEXT: RAM pathway blockade in budding yeast – dse1pr::URA3 reporter, 5-FOA selection, pilot screen (AID 869);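 further: 0% = DMSO wells with no growth and 100% = 10 µM 1-NA-PP1 with full growth; RAM network block rescues cells from 5-FOA so hits raise OD615 growth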
RUN PARAMETERS: S. cerevisiae dse1pr::URA3 5-FOA growth, OD615, 2 d; at 10 µM; hits give high values; strain carries analog-sensitive mutant Cbk1 kinase
MEASURED QUANTITY: inhibition (%)
Give the quantity in %, number only.

**Q:** What does the data say about its inhibition? Entry: Cc1noc(/C=C/N(C)C)c1S(=O)(=O)N1CCc2ccccc21
**A:** 1.65

**Q:** What does the data say about its inhibition? Entry: CCOC(=O)Cn1c(CN(C)Cc2ccccc2)nc2c1c(=O)n(C)c(=O)n2C
**A:** 0.24

**Q:** What does the data say about its inhibition? Entry: CCOC(=O)c1sc(NC(=O)c2noc3c2CCCC3)c(C(=O)OCC)c1C
**A:** 0.47

**Q:** What does the data say about its inhibition? Entry: O=c1[nH]c(SCc2ccc(F)cc2)nc2c1cnn2-c1ccc(F)cc1
**A:** 1.02

**Q:** What does the data say about its inhibition? Entry: Cc1ccc(Nc2cc(C)nc3nc(C)nn23)c(C)c1
**A:** -0.02

**Q:** What does the data say about its inhibition? Entry: CCn1cc(C(=O)NCC2CCCO2)c(=O)c2cc(S(=O)(=O)N(C)C3CCCCC3)ccc21 (stereo not drawn)
**A:** 4.23

**Q:** What does the data say about its inhibition? Entry: O=C(NCCSCc1ccco1)c1ccc(CN2CCOCC2)cc1
**A:** 1.59

**Q:** What does the data say about its inhibition? Entry: CCOC(=O)N1CCN(C(=O)CSc2nnc(-c3cccs3)o2)CC1
**A:** 0.595

**Q:** What does the data say about its inhibition? Entry: CCCc1cc(C(=O)Nc2ccc(C(C)=O)cc2)no1
**A:** 2.74

**Q:** What does the data say about its inhibition? Entry: C(=N\c1nccs1)/c1cccnc1
**A:** 0.235

**Q:** What does the data say about its inhibition? Entry: Cc1cc(C)c(NC(=O)CSc2nc3c(c(=O)n2C)SC(C)C3)c(C)c1 (stereo not drawn)
**A:** 1.58

**Q:** What does the data say about its inhibition? Entry: O=C(NC1CCCc2ccccc21)c1cccnc1 (stereo not drawn)
**A:** 1.98

**Q:** What does the data say about its inhibition? Entry: CC(C)CNc1oc(-c2ccc(F)cc2)nc1C#N
**A:** 0.19

**Q:** What does the data say about its inhibition? Entry: CCOC(=O)N1CCN(CC(=O)Nc2ccc(C)cc2)CC1
**A:** 1.11

**Q:** What does the data say about its inhibition? Entry: O=c1oc2c3c4c(cc2s1)CCCN4CCC3
**A:** 1.76

**Q:** What does the data say about its inhibition? Entry: CCN(CC)S(=O)(=O)c1ccc2c(c1)nc(SCn1nnc3ccccc3c1=O)n2CC
**A:** 2.54

**Q:** What does the data say about its inhibition? Entry: CC1CCCCN1S(=O)(=O)c1cccc2cccnc12 (stereo not drawn)
**A:** 0.47

**Q:** What does the data say about its inhibition? Entry: CCSc1nnc(N2C(=O)CC(c3ccsc3)C3=C2CC(C)(C)CC3=O)s1 (stereo not drawn)
**A:** 0.195

**Q:** What does the data say about its inhibition? Entry: COc1cc(C(=O)N2CCN(c3cc(Cl)ccc3Cl)CC2)cc(OC)c1OC
**A:** 0.575

**Q:** What does the data say about its inhibition? Entry: COC(=O)Cn1c(CN2CCN(c3ccccc3F)CC2)nc2c1c(=O)n(C)c(=O)n2C
**A:** 2.47

**Q:** What does the data say about its inhibition? Entry: COc1ccc(C2CC(c3ccco3)n3ncnc3N2)cc1 (stereo not drawn)
**A:** 2.36

**Q:** What does the data say about its inhibition? Entry: CC(OC(=O)C1CC=CCC1C(N)=O)C(Cl)=C(Cl)Cl (stereo not drawn)
**A:** 0.055

**Q:** What does the data say about its inhibition? Entry: Cc1c(C(=O)OC2CCC(C)CC2)[nH]c2c1C(=O)CCC2 (stereo not drawn)
**A:** 1.67

The values you see were collected from PubChem BioAssay.
